Source listed as patent US20100113436A1.

System: Plasmodium falciparum DD2
Procedure text: In vitro analysis versus strains of Plasmodium falciparum: DD2
Type: cell-based
Settings: DD2 strain, read-out: IC50
pIC50: −log10 of the molar value.
Below, each of the compounds is paired with its reported pIC50 value.
Measurement type: pIC50

# Compound, Assay value
records = [
    ("CCS(=O)(=O)N1CCC2(CC1)OOC1(OO2)C2CC3CC(C2)CC1C3 [Tetraoxane 39b]", 8.52),
    ("O=C(CC1CCC2(CC1)OOC1(OO2)C2CC3CC(C2)CC1C3)N1CCOCC1 (stereo not drawn) [Tetraoxane 29h]", 9.22),
    ("CCN(CC)Cc1cc(Nc2ccnc3cc(Cl)ccc23)ccc1O [AM, Amodiaquine, reference compound]", 8.21),
]
